experiment: In-vitro metabolism of LDAA compounds using liver microsomes; type: in vitro ADME, human; details: both sexes, human, pooled human liver microsomes, pH 7.4, 1.0E−07M; 0.1 mg/mL microsomal protein; read-out: Half-Life (minute) Mean
Counter-ions that a name gives are not always drawn. Non-standard residues stand in square brackets, D forms with d. Residues, ends and D or L forms follow the SMILES beside them. Dopa = N[C@@H](Cc1ccc(O)c(O)c1)C(=O)O
MEASUREMENT NAME: half-life at 0.1 μM

N[C@@H](Cc1ccc(O)c(O)c1)C(=O)N[C@@H](Cc1ccc(O)cc1)C(=O)O [LD-Tyr TFA salt, Levodopa Tyrosine TFA Salt] (H-[Dopa]-Tyr-OH) | > 60 min
N[C@@H](Cc1ccc(O)c(O)c1)C(=O)NCC(=O)O [LD-Gly TFA salt, Levodopa Glycine TFA Salt] | 54 min
N[C@@H](CSC[C@@H](NC(=O)[C@@H](N)Cc1ccc(O)c(O)c1)C(=O)O)C(=O)O (single isomer, unassigned; peak 1) [LD-LA1 TFA salt, Levodopa Lanthionine Peak 1 TFA Salt] | > 60 min

====

test: in vitro; conditions: human, Caco-2, pH 7.4, Permeability Mean
Counter-ions that a name gives are not always drawn. Non-standard residues stand in square brackets, D forms with d. Residues, ends and D or L forms follow the SMILES beside them. Dopa = N[C@@H](Cc1ccc(O)c(O)c1)C(=O)O
Listed below: Papp B→A at 40 min, 10 μM values for each entry.
MEASUREMENT NAME: Papp B→A at 40 min, 10 μM

N[C@@H](Cc1ccc(O)c(O)c1)C(=O)N[C@@H](Cc1ccc(O)cc1)C(=O)O [LD-Tyr TFA salt, Levodopa Tyrosine TFA Salt] (H-[Dopa]-Tyr-OH) | < 0.01 ×10⁻⁶ cm/s
NCCCC[C@H](NC(=O)[C@@H](N)Cc1ccc(O)c(O)c1)C(=O)O [LD-Lys TFA salt, Levodopa Lysine TFA Salt] (H-[Dopa]-Lys-OH) | < 0.03 ×10⁻⁶ cm/s
N[C@@H](Cc1ccc(O)c(O)c1)C(=O)N[C@@H](Cc1c[nH]c2ccccc12)C(=O)O [LD-Trp TFA salt, Levodopa Tryptophan] (H-[Dopa]-Trp-OH) | < 0.01 ×10⁻⁶ cm/s

====

The entries below come with measured recovery at 60 min, 10 μM values attached.
experiment: In-vitro absorption, Caco-2 A-B permeability; format: in vitro ADME, human; conditions: human, Caco-2, pH 7.4, Caco-2 A-B; without verapamil; read-out: Percent Recovery Mean
Where a name gives a salt, the structure may show the parent alone. Non-standard residues stand in square brackets, D forms with d. Residues, ends and D or L forms follow the SMILES beside them. Dopa = N[C@@H](Cc1ccc(O)c(O)c1)C(=O)O
MEASUREMENT NAME: recovery at 60 min, 10 μM (%)

NC(=O)C[C@H](NC(=O)[C@@H](N)Cc1ccc(O)c(O)c1)C(=O)O [LD-Asn TFA salt, Levodopa Asparagine TFA Salt] (H-[Dopa]-Asn-OH) | 70
N[C@@H](Cc1ccc(O)c(O)c1)C(=O)NCC(=O)O [LD-Gly TFA salt, Levodopa Glycine TFA Salt] | 64
N[C@@H](CSC[C@@H](NC(=O)[C@@H](N)Cc1ccc(O)c(O)c1)C(=O)O)C(=O)O (single isomer, unassigned; peak 1) [LD-LA1 TFA salt, Levodopa Lanthionine Peak 1 TFA Salt] | 79
N[C@@H](Cc1ccc(O)c(O)c1)C(=O)N[C@@H](Cc1ccc(O)cc1)C(=O)O [LD-Tyr TFA salt, Levodopa Tyrosine TFA Salt] (H-[Dopa]-Tyr-OH) | 42
NCCCC[C@H](NC(=O)[C@@H](N)Cc1ccc(O)c(O)c1)C(=O)O [LD-Lys TFA salt, Levodopa Lysine TFA Salt] (H-[Dopa]-Lys-OH) | 30
N[C@@H](Cc1ccc(O)c(O)c1)C(=O)N[C@@H](Cc1c[nH]c2ccccc12)C(=O)O [LD-Trp TFA salt, Levodopa Tryptophan] (H-[Dopa]-Trp-OH) | 51
NC(=O)CC[C@H](NC(=O)[C@@H](N)Cc1ccc(O)c(O)c1)C(=O)O [LD-Gln TFA salt, Levodopa Glutamine TFA Salt] (H-[Dopa]-Gln-OH) | 69

====

assay: in vitro; conditions: human, Caco-2, pH 7.4, Permeability 2nd
Where a name gives a salt, the structure may show the parent alone. Non-standard residues stand in square brackets, D forms with d. Residues, ends and D or L forms follow the SMILES beside them. Dopa = N[C@@H](Cc1ccc(O)c(O)c1)C(=O)O
MEASUREMENT NAME: Papp B→A at 40 min, 10 μM

N=C(N)NCCC[C@H](NC(=O)[C@@H](N)Cc1ccc(O)c(O)c1)C(=O)O [LD-Arg TFA salt, Levodopa Arginine TFA Salt] | 0.02 ×10⁻⁶ cm/s
N[C@@H](Cc1ccc(O)c(O)c1)C(=O)N[C@@H](Cc1ccc(O)cc1)C(=O)O [LD-Tyr TFA salt, Levodopa Tyrosine TFA Salt] (H-[Dopa]-Tyr-OH) | 0.01 ×10⁻⁶ cm/s
NC(=O)C[C@H](NC(=O)[C@@H](N)Cc1ccc(O)c(O)c1)C(=O)O [LD-Asn TFA salt, Levodopa Asparagine TFA Salt] (H-[Dopa]-Asn-OH) | 0.39 ×10⁻⁶ cm/s
N[C@@H](Cc1ccc(O)c(O)c1)C(=O)N[C@@H](Cc1c[nH]c2ccccc12)C(=O)O [LD-Trp TFA salt, Levodopa Tryptophan] (H-[Dopa]-Trp-OH) | 0.01 ×10⁻⁶ cm/s
N[C@@H](CSC[C@H](NC(=O)[C@@H](N)Cc1ccc(O)c(O)c1)C(=O)O)C(=O)O (single isomer, unassigned; peak 2) [LD-LA2 TFA salt, Levodopa Lanthionine Peak 2 TFA Salt] | 13.6 ×10⁻⁶ cm/s

====

test: Protein binding, equilibrium dialysis method; assay type: in vitro ADME, human; conditions: human, human plasma, pH 7.4, 1.0E-05M; read-out: % Recovery 2nd
Counter-ions that a name gives are not always drawn. Non-standard residues stand in square brackets, D forms with d. Residues, ends and D or L forms follow the SMILES beside them. Dopa = N[C@@H](Cc1ccc(O)c(O)c1)C(=O)O
MEASUREMENT NAME: recovery at 4 h, 10 μM (%)

NC(=O)CC[C@H](NC(=O)[C@@H](N)Cc1ccc(O)c(O)c1)C(=O)O [LD-Gln TFA salt, Levodopa Glutamine TFA Salt] (H-[Dopa]-Gln-OH) | 78
N[C@@H](Cc1ccc(O)c(O)c1)C(=O)N[C@@H](CC(=O)O)C(=O)O [LD-Asp TFA salt, Levodopa Aspartic Acid] (H-[Dopa]-Asp-OH) | 108
N[C@@H](Cc1ccc(O)c(O)c1)C(=O)N[C@@H](Cc1c[nH]c2ccccc12)C(=O)O [LD-Trp TFA salt, Levodopa Tryptophan] (H-[Dopa]-Trp-OH) | 74
N=C(N)NCCC[C@H](NC(=O)[C@@H](N)Cc1ccc(O)c(O)c1)C(=O)O [LD-Arg TFA salt, Levodopa Arginine TFA Salt] | 5
N[C@@H](CSC[C@@H](NC(=O)[C@@H](N)Cc1ccc(O)c(O)c1)C(=O)O)C(=O)O (single isomer, unassigned; peak 1) [LD-LA1 TFA salt, Levodopa Lanthionine Peak 1 TFA Salt] | 71
NCCCC[C@H](NC(=O)[C@@H](N)Cc1ccc(O)c(O)c1)C(=O)O [LD-Lys TFA salt, Levodopa Lysine TFA Salt] (H-[Dopa]-Lys-OH) | 19

====

assay: In-vitro absorption, Caco-2 A-B permeability; format: in vitro ADME, human; conditions: human, Caco-2, pH 7.4, Caco-2 A-B; without verapamil; read-out: Percent Recovery Mean
Counter-ions that a name gives are not always drawn.
Entries and their recovery at 60 min, 10 μM
MEASUREMENT NAME: recovery at 60 min, 10 μM (%)

N[C@@H](Cc1ccc(O)c(O)c1)C(=O)O [LD (control), L-3,4-dihydroxyphenylalanine, reference compound] | 29
N[C@@H](CSC[C@H](NC(=O)[C@@H](N)Cc1ccc(O)c(O)c1)C(=O)O)C(=O)O (single isomer, unassigned; peak 2) [LD-LA2 TFA salt, Levodopa Lanthionine Peak 2 TFA Salt] | 89
N=C(N)NCCC[C@H](NC(=O)[C@@H](N)Cc1ccc(O)c(O)c1)C(=O)O [LD-Arg TFA salt, Levodopa Arginine TFA Salt] | 26

====

test: Comparative formulation tests, physical stability (Tables 32a-c, 33a-c); format: physicochemical; conditions: NB 144-15, ~0.1% Asc + ~0.1% NAC; LDAA TFA salt/CD formulation; Day 40, returned to 2-8° C.
Structures can show the parent of a compound that is named as a salt. Non-standard residues stand in square brackets, D forms with d. Residues, ends and D or L forms follow the SMILES beside them. Dopa = N[C@@H](Cc1ccc(O)c(O)c1)C(=O)O
MEASUREMENT NAME: Physical stability (visual), Day 40

N[C@@H](Cc1ccc(O)c(O)c1)C(=O)N[C@@H](CC(=O)O)C(=O)O [LD-Asp TFA salt, Levodopa Aspartic Acid] (H-[Dopa]-Asp-OH) | Stable
NCCCC[C@H](NC(=O)[C@@H](N)Cc1ccc(O)c(O)c1)C(=O)O [LD-Lys TFA salt, Levodopa Lysine TFA Salt] (H-[Dopa]-Lys-OH) | Precipitated
N=C(N)NCCC[C@H](NC(=O)[C@@H](N)Cc1ccc(O)c(O)c1)C(=O)O [LD-Arg TFA salt, Levodopa Arginine TFA Salt] | Stable
N[C@@H](CSC[C@@H](NC(=O)[C@@H](N)Cc1ccc(O)c(O)c1)C(=O)O)C(=O)O (single isomer, unassigned; peak 1) [LD-LA1 TFA salt, Levodopa Lanthionine Peak 1 TFA Salt] | Stable
N[C@@H](Cc1ccc(O)c(O)c1)C(=O)N[C@@H](Cc1c[nH]c2ccccc12)C(=O)O [LD-Trp TFA salt, Levodopa Tryptophan] (H-[Dopa]-Trp-OH) | Stable
N[C@@H](Cc1ccc(O)c(O)c1)C(=O)N[C@@H](Cc1ccc(O)cc1)C(=O)O [LD-Tyr TFA salt, Levodopa Tyrosine TFA Salt] (H-[Dopa]-Tyr-OH) | Precipitated

Hey, just so you know, these numbers are from patent US20220362386A1.
